# TEST DETAILS: NCI Yeast Anticancer Drug Screen. Data for the mec2-1 strain (AID 157)
# TEST CONDITIONS: S. cerevisiae mec2-1 strain, at 50.0 µM, active compounds read high
This is part of a sample that, as a whole, favours compounds with a hit. Of some 79,000 tested, about 15% had one in any assay.
Provide the reported growth inhibition of each item.
I only need the number, in %, no unit after it.

Task item: # get_value(readout='growth inhibition', item= O=P(Oc1ccccc1)(Oc1ccccc1)N(CCCl)CCCl )
Reply: 9.55

Task item: Another: NCCN.O=N[O-].O=N[O-].O=N[O-].O=N[O-].[Co+3].[K+]
Reply: 4.05

Task item: What would you report for CCCCCCCC(=O)[O][Hg][c]1ccccc1 ?
Reply: 99.8

Task item: Can you check [Cu+2].[O-]c1ccc2ccccc2c1N=Nc1ccccc1.[O-]c1ccc2ccccc2c1N=Nc1ccccc1 next?
Reply: -13.1

Task item: Now the same for COS(=O)(=O)c1ccccc1
Reply: -2.4

Task item: # repeat for NC(Cc1ccc(Cl)cc1)P(=O)(O)O (centres undefined)
Reply: -4.35

Task item: Same question, COC(=O)C1=NNC2(c3ccccc3Sc3ccccc32)C1C(=O)OC (centres undefined) this time
Reply: -8.25

Task item: For CC1CC2C(CCC3(C)C2CC2(CC2)C3(C)O)C2(C)CCC(O)CC12O (centres undefined) then?
Reply: 8.55

Task item: Would you mind doing O=C(Nc1ccc(S(=O)(=O)Nc2ccc(N=Nc3ccc(N=Nc4ccccc4)cc3)cc2)cc1)C(N1CC1)(N1CC1)N1CC1 as well?
Reply: -9.5

Task item: What about this compound? CCOc1ccc(N)cc1
Reply: 10.9

Task item: Moving on to the next compound: CC(OC(N)=O)C(F)(F)C(F)F (centres undefined)
Reply: -9.15

Task item: // repeat for CC1(C)CC(N)C(=O)c2ccccc21 (centres undefined) and report
Reply: -20.6

Task item: Item: Cc1sc(Cc2ccccc2)nc1-c1ccc(N=Cc2ccc(N(CCCl)CCCl)cc2)cc1
Reply: 93.8

Task item: And for COc1ccc2c(c1OC)CC(N)C2O (centres undefined) ?
Reply: 3.55

----------
Answer each item with its documented growth inhibition.
# TEST DETAILS: NCI Yeast Anticancer Drug Screen. Data for the sgs1 mgt1 strain (AID 161);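 further: 0% = growth of cultures given vehicle only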
# TEST CONDITIONS: S. cerevisiae sgs1 mgt1 strain, at 50.0 µM, active compounds read high
The panel holds about 79,000 compounds, 15% with a hit somewhere; the sample as a whole holds those more often.
Kindly provide the numeric value in % only, without the unit symbol.

Task item: # lookup: growth inhibition of COc1ccc(C=C2C(=O)NC(=O)NC2=O)cc1OC
Reply: 22.2

Task item: Entry CCCCNCCc1cccnc1 please
Reply: 20.8

Task item: Ok, now CCCCCCCC[N+]12CN3CN(CN(C3)C1)C2
Reply: 7.75

Task item: Proceed to Nc1n[nH]c(CCc2nc(N)n[nH]2)n1
Reply: -18.1

Task item: Do the same for Cn1nc(-c2ccc(S(=O)(=O)F)cc2)s/c1=N/NC(=O)c1ccccc1 please
Reply: 19.8

Task item: Consider next the compound CN(N=O)C(=O)NC1CCCCC1 in the same way.
Reply: -1.25

----------
# TEST DETAILS: NCI Yeast Anticancer Drug Screen. Data for the sgs1 mgt1 strain (AID 161);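 further: 0% = growth of cultures given vehicle only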
# TEST CONDITIONS: S. cerevisiae sgs1 mgt1 strain, at 50.0 µM
About 79,000 compounds went through this panel and 15% of them were active in at least one assay; those are over-represented in the sample as a whole. Activity calls are given as the source filed them. Cut-off read from the data, not from the text of the source: active = growth inhibition above about 70%; inactive = the rest.
Entry note: the call must match one of active, inactive

Task item: How did this test come out for CC1(C)C2CCC([CH2][Hg][Cl])C1C2 (centres undefined) ?
Reply: active

Task item: Next: C=CCn1cc2c3c(cccc31)C1CC(C)CN(C)C1C2 (centres undefined)
Reply: inactive

Task item: Another compound: C=CCc1cc(Cl)ccc1OC(=O)N(C)C
Reply: inactive

Task item: Next compound up: CC(C)c1ccc(C(c2c(O)c3ccccc3oc2=O)c2c(O)c3ccccc3oc2=O)cc1
Reply: active

----------
What growth inhibition was measured for each of the following?
# TEST DETAILS: NCI Yeast Anticancer Drug Screen. Data for the bub3 strain (AID 167)
# TEST CONDITIONS: S. cerevisiae bub3 mutant strain, at 50.0 µM, active compounds read high
About 79,000 compounds went through this panel and 15% of them were active in at least one assay; those are over-represented in the sample as a whole.
I only need the number, in %, no unit after it.

Task item: Given O=C1C(=O)C(Br)(Br)C(Br)=C1Br , state its recorded growth inhibition.
Reply: 93.5

Task item: Again, but for O=C(O)CC(S)C(=O)O (stereo unspecified)
Reply: -9.85

Task item: Can you handle CP1CC(Br)C(Br)C1 (stereo unspecified) next?
Reply: 6.5

Task item: Param item: CN(C)P(=O)(N(C)C)N(C)C
Reply: 23.6

Task item: Also need Oc1c(Cl)c(Cl)cc(Cl)c1Cc1c(Cl)cc(Cl)c(Cl)c1[O][Pb]([c]1ccccc1)([c]1ccccc1)[c]1ccccc1 , thanks.
Reply: 99.3

Task item: And CC1(C)C(=O)C=CC2(C)C3CCC4(C)C(O)CCC4(C)C3CCC12 (stereo unspecified) ?
Reply: 13.8

Task item: Now try O=C1C=C(Cl)C(=O)C(Cl)=C1 .
Reply: 99.3

Task item: Same thing, different compound: Cc1cc(CCN)c(C)c2c1oc1ccccc12
Reply: 93

Task item: Next up: CN(C)P1(=S)NCC(C(C)(C)C)CO1 (stereo unspecified)
Reply: 18.5

Task item: Would you mind doing Oc1cc(Br)c(O)c(Br)c1 as well?
Reply: 36.4

Task item: Param item: CC(=O)OCC12CCC(C)=CC1OC1C(O)C(OC(C)=O)C2(C)C12CO2 (stereo unspecified)
Reply: 92.8

Task item: Field entry: CC(C)(C)C1=C(Br)C(F)(C(C)(C)C)OP1(=O)c1ccccc1 (stereo unspecified)
Reply: 90

Task item: Follow-up item: CCC[CH2][Sn]1([CH2]CCC)[O]CC(C)[O]1 (stereo unspecified)
Reply: 88.3

Task item: Next entry: COc1cc2ccnc(C3(OC(=O)c4ccccc4)CCN(CCc4ccccc4)CC3)c2cc1OC
Reply: 2.95

Task item: Follow-up item: NC(=O)C(Cl)(Cl)CCl
Reply: -2.5

Task item: Would you kindly repeat that for CC12CC[C]([Hg][I])(CC1)C2(C)C ?
Reply: 74.9

Task item: Same lookup for CC1(C)C=C(NC(=O)N2CC2)C(C)(C)N1O , please.
Reply: 34.8

Task item: Would you mind doing [C-]#[O+].[C-]#[O+].[C-]#[O+].[C-]#[O+].[C-]#[O+].[Mo+2].[Mo+4].[c-]1[c-][c-][cH-][c-]1.[c-]1[c-][c-][cH-][c-]1.c1ccc([PH+](CC[PH+](c2ccccc2)c2ccccc2)c2ccccc2)cc1 as well?
Reply: 92.3

Task item: Try this compound next: OC1C2[C@@H](O)CCCN2C[C@@H](O)[C@H]1O (stereo partly specified)
Reply: 4.95

Task item: Another: c1ccc2c(c1)CC1OCN3CN(COC4Cc5ccccc5CC43)C1C2 (stereo unspecified)
Reply: -1.45

Task item: Now the same for O=C(O)C(CSC(c1ccccc1)c1ccccc1)NC(=O)C(c1ccccc1)c1ccccc1 (stereo unspecified)
Reply: 85.7

----------
# TEST DETAILS: NCI Yeast Anticancer Drug Screen. Data for the mlh1 rad18 strain (AID 175)
# TEST CONDITIONS: S. cerevisiae mlh1 rad18 strain growth inhibition; at 50.0 µM; active compounds read high
This is part of a sample that, as a whole, favours compounds with a hit. Of some 79,000 tested, about 15% had one in any assay.
READOUT TYPE: growth inhibition (%)
Please respond with the number in % and leave the unit unwritten.

Task item: What does the data say about its growth inhibition? Entry: CC[As](=O)(O)c1ccc(I)cc1
Reply: 5.95

Task item: Next entry: CCOC(=O)CC(=Nc1cc(C)on1)N(CC)CC
Reply: -17.1

Task item: Also need O=C(CC([Se]c1ccccc1)c1ccccc1)c1ccccc1 (stereo not drawn) , thanks.
Reply: 98

Task item: Another: COc1cc2c[n+](C)c3c4cc5c(cc4ccc3c2cc1OC)OCO5
Reply: -33.6

Task item: Query O=[N+]([O-])C=C([SH2+])[SH2+].O=[N+]([O-])C=C([SH2+])[SH2+].[Ni+2].c1ccc(C[P+](c2ccccc2)(c2ccccc2)c2ccccc2)cc1 next
Reply: 93.3

Task item: Then what about the compound CC(Cl)C(=O)OC(C)(C)Cl (stereo not drawn) ?
Reply: 3.05

Task item: Cool, now C1CN1[PH+](N1CC1)N1CC1.[C-]#[O+].[C-]#[O+].[C-]#[O+].[C-]#[O+].[C-]#[O+].[Cr]
Reply: -17.3

Task item: Now the compound CC[n+]1c(/C=C/c2ccc(N(CCCl)CCCl)cc2)ccc2cc(NC(=O)/C=C/c3ccccc3)ccc21
Reply: 82

Task item: What would you report for CN(C)c1ccc(N=[N+]=[N-])cc1 ?
Reply: 8.15

Task item: Ok, now CCCCC(CC)C(=O)NC(N)=O (stereo not drawn)
Reply: 4.1

Task item: Next record, please: N#Cc1ccc(NN=O)cc1
Reply: 28.1

Task item: Quick one: CC1(C)CC(N)C(=O)c2ccccc21 (stereo not drawn)
Reply: 29

Task item: Now the compound N#CCCCCCBr
Reply: 19.4

Task item: Could you do the same for COC1CCC(OC2CC(C3(C)CCC4(CC(O)C(C)C(C(C)/C=C(\C)C(=O)C(C)CC(C)C(=O)O)O4)O3)OC3(OC(C4OC(O)(CO)C(C)CC4C)CC3C)C2C)OC1C (stereo not drawn) , please?
Reply: 69.4

Task item: Same for Nc1nc2ncnc(N)c2nc1-c1ccc(N(CCCl)CCCl)cc1
Reply: 68.8

Task item: Same question, N#CN(Cc1ccccc1)C(c1ccccc1)(c1ccccc1)c1ccccc1.[I][Sn]([c]1ccccc1)([c]1ccccc1)[c]1ccccc1 this time
Reply: 97

Task item: And the next one, O=C([O-])C[OH+]c1ccc(Cl)cc1Cl.O=C([O-])C[OH+]c1ccc(Cl)cc1Cl.[Ni+2] ?
Reply: 41.5

Task item: Now this one: Cc1nccc2c1[nH]c1ccc(Br)cc12
Reply: 1.25

Task item: Again, but for C[n+]1c[se]cn1
Reply: 0.55

Task item: Now consider [CH3][Sn]([CH3])([S]CCS(=O)(=O)O)[S]CCS(=O)(=O)O and answer again.
Reply: -61.6

Task item: // repeat for Cc1[cH-]c(=O)n(-c2ccccc2)n1.[Au+].[Au].c1ccc([PH+](c2ccccc2)c2ccccc2)cc1.c1ccc([PH+](c2ccccc2)c2ccccc2)cc1 and report
Reply: 83

Task item: Moving on to the next compound: O=[As](O)(O)Cc1cccc(F)c1
Reply: -8.35

Task item: Proceed to O=S1(=O)c2ccccc2-c2ccccc21
Reply: 5.65

Task item: Follow-up entry: CC(CCc1ccccc1)NC(C)C(O)c1ccc(O)cc1 (stereo not drawn)
Reply: 78.1

Task item: Input OC/C=C\c1ccc2c(c1)OCO2
Reply: -32.5

Task item: Request: CC12CCC3C(CCC4(C)CC(OC(=O)Cc5ccc(N(CCCl)CCCl)cc5)CCC34C)C1CCC2=O (stereo not drawn)
Reply: 3.65

Task item: Same for CCCCOC1OCN(C2CCCCC2)CC1(C)C (stereo not drawn)
Reply: 41.8

Task item: And what about the compound O=P(Oc1ccccc1)(Oc1ccccc1)Oc1ccccc1Cl ?
Reply: 51.6

Task item: Try this compound next: COc1ccc(C=C2C(=O)NC(=O)NC2=O)cc1OC
Reply: 23.9

Task item: Likewise for O=[As](O)(O)c1ccccc1 ?
Reply: -15.7

Task item: Cool, now ClCCN(CCCl)c1ccc(/C=N/Nc2ccnc3ccccc23)cc1
Reply: 88.8

Task item: Another compound to check: O=C(O)c1ccccc1.O=C(O)c1ccccc1.O=C(O)c1ccccc1.O=C(O)c1ccccc1.[Cu].[Cu]
Reply: 17.1

Task item: Similarly, CCCCNCCc1cccnc1 ?
Reply: 15.9
